Attribution: the supplement of paper PMC9170038

System: MS2 coat protein
Assay: apparent KD of MS2 coat protein; designed switch direction (-1 OFF switch, 1 ON switch): 1; higher = weaker reporter binding
Conditions: Eterna round: R95; input ligand: none
Class boundaries, taken from values of apparent KD of MS2 coat protein, are as follows: lower (below 200 nM), middle (200 nM to below 300 nM), upper (300 nM or more)

- AGUCCUGAAAAGAAAAUACAGAGACAUGUACAUGAGGAUCACCCAUGUCAUGUACAAGUUCUAUGCUCGUCAUAUAA [Sensorship 20 - Jieux - Sensor for hsa-mir-208a] (puzzle: Sensor for hsa-mir-208a): lower
- GUAAAACAUGAGGAUCACCCAUGUAAUAAUAUGGGAGGAUAUCAGAAUGUAUGUAUGUAAUGAGAAGGCCUAAAUG [Mat - Same State 1 - Mod of Eli - D74] (puzzle: Same State 1): upper
- GACAGGCAGGCUUUUUCCUCGUAGUGUAAACAUGAGGAUCACCCAUGUGCUCGCCCUGGAUCUUUGGAUCGCAGGAA [Tibeon] (puzzle: Sensor for hsa-mir-208a): upper
- UAAGAACAUGAGGAUCACCCAUGUGGAAAGAACACAGGAUAUCAUAGAAGGACGCGACUAUGAGAAGGGUGACACG [Lequat] (puzzle: Same State 1): middle
- CGUCCGGCCUGUGCUGGCCGGUUGCUUGUACAUGAGGAUCACCCAUGUUCUUGUGCAGGCUUUUUGCUCGUCUUGUG [salish99_mir208a_018] (puzzle: Sensor for hsa-mir-208a): middle
- UGGAUCUAGGCUUGCCUGGGUCCAUGUUGACAUGAGGAUCACCCAUGUGUAUUUUUUAAGCUUUUUGUUUGUCAACU [JL A Humble Attempt mod 9] (puzzle: Sensor for hsa-mir-208a): lower
- AGUCCAGCAAGAGCUGGACAAAAGCAUGUACAUGAGGAUCACCCAUGUUCAUGUACAAGCUUUUUGCUCGUCAAAAG [Mat - hsa-mir-208a - Mod of JL - 72] (puzzle: Sensor for hsa-mir-208a): upper
- AACAUUCUAUCUGAGGAUAUCAUGAAAUAAACAUGAGGAUCACCCAUGUGCAGGAAAACUGCAUAUGAGAAGGCAGAUAGAUUGA [salish99_ss2_r3_022] (puzzle: Same State 2): upper
- UUAAGCCACGGGCAGGAUAUGUAUUAAUAUACAUGAGGAUCACCCAUGUGCAGGUGUAACACCUGACAGAAGGGCCAAUCGCGGC [Soondi - 5] (puzzle: Same State 2): middle
